Give measured pKd for each item. Keep answers brief.
target: T1, human IL-8 (human, UniProt P10145 23-99, limits assumed); assay: SPR Biacore T200, Protein A/G capture, pH 5.8, 37C;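 note: antibodies captured by Protein A/G amine-coupled onto a CM4 sensor chip, with kinetic parameters derived using Biacore T200 Evaluation Software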
T1 construct: also called hIL-8; hIL8
T1 sequence (P10145 23-99 limits assumed): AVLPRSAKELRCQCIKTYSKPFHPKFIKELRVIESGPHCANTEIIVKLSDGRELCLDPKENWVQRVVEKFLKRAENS
One number for each entry, as −log10 of the molar value.

Give pKd for each listed item.
1. H1009/L0442 (antibody, human IgG1, kappa, name in Kabat numbering, V domains shown, L442 = L395 + S31E) VH: QVQLVESGGGLVQPGGSLRLSCAASGFTFSDYYLSWVRQAPGKGLEWVGLIRNKDNYHTPEYSASVKGRFTISRDDSKNSLYLTMSDLKTEDTAVYYCARENHRYDVELAYWGQGTLVTVSS VL: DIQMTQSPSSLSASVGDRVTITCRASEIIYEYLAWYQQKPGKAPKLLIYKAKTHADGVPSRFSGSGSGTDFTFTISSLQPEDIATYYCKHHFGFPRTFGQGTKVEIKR
2. H1029/L0395 (antibody, human IgG1, kappa, name in Kabat numbering, V domains shown) VH: QVQLVESGGGLVQPGGSLRLSCAASGFTFDKYYLSWVRQAPGKGLEWVGLIRNKDNHHTPEYSASVKGRFTISRDDSKNSLYLTMSDLKTEDTAVYYCARENHRYDVELAYWGQGTLVTVSS VL: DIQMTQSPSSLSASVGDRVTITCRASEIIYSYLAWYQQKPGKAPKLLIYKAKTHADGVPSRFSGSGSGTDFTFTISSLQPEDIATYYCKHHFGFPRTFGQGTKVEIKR
3. H1041/L0395 (antibody, human IgG1, kappa, name in Kabat numbering, V domains shown) VH: QVQLVESGGGLVQPGGSLRLSCAASGFTFSEYYLSWVRQAPGKGLEWVGLIRNKDNGYHPEYSASVKGRFTISRDDSKNSLYLTMSDLKTEDTAVYYCARENHRYDVELAYWGQGTLVTVSS VL: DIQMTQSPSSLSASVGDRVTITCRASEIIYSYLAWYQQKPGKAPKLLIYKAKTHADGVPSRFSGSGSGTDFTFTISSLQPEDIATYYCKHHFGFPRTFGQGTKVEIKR
4. H1047/L0442 (antibody, human IgG1, kappa, name in Kabat numbering, V domains shown, L442 = L395 + S31E) VH: QVQLVESGGGLVQPGGSLRLSCAASGFTFDKYYLSWVRQAPGKGLEWVGLIRNKDNGYTPEYSASVKGRFTISRDDSKNSLYLTMSDLKTEDTAVYYCARENHRYDVELAYWGQGTLVTVSS VL: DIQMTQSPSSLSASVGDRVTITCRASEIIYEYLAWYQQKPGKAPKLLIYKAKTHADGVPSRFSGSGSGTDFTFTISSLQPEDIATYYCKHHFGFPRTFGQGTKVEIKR
5. H1022/L0442 (antibody, human IgG1, kappa, name in Kabat numbering, V domains shown, L442 = L395 + S31E) VH: QVQLVESGGGLVQPGGSLRLSCAASGFTFSDYYLSWVRQAPGKGLEWVGLIRNKDNHHHPEYSASVKGRFTISRDDSKNSLYLTMSDLKTEDTAVYYCARENHRYDVELAYWGQGTLVTVSS VL: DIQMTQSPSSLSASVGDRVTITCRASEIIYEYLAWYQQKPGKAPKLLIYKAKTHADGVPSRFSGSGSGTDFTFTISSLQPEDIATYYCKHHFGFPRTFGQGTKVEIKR

[out]
1: 7.20; 2: 7.26; 3: 7.15; 4: 7.33; 5: 6.74

Give pKd for each listed item.
1. H1037/L0395 (antibody, human IgG1, kappa, name in Kabat numbering, V domains shown) VH: QVQLVESGGGLVQPGGSLRLSCAASGFTFDKYYLSWVRQAPGKGLEWVGLIRNKDNYHHPEYSASVKGRFTISRDDSKNSLYLTMSDLKTEDTAVYYCARENHRYDVELAYWGQGTLVTVSS VL: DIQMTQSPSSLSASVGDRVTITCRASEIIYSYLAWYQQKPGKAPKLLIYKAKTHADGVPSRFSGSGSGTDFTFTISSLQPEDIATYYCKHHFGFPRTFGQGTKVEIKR
2. H1048/L0395 (antibody, human IgG1, kappa, name in Kabat numbering, V domains shown) VH: QVQLVESGGGLVQPGGSLRLSCAASGFTFSEYYLSWVRQAPGKGLEWVGLIRNKDNGYTPEYSASVKGRFTISRDDSKNSLYLTMSDLKTEDTAVYYCARENHRYDVELAYWGQGTLVTVSS VL: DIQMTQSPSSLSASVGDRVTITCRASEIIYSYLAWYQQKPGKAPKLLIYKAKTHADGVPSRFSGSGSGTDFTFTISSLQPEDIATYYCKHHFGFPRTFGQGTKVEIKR
3. H1000/L0395 (antibody, human IgG1, kappa, name in Kabat numbering, V domains shown) VH: QVQLVESGGGLVQPGGSLRLSCAASGFTFSEYYLSWVRQAPGKGLEWVGLIRNKDNHHTPEYSASVKGRFTISRDDSKNSLYLTMSDLKTEDTAVYYCARENHRYDVELAYWGQGTLVTVSS VL: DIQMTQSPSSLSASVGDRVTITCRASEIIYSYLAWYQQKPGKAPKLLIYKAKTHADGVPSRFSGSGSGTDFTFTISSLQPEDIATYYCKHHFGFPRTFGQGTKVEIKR
4. H1049/L0395 (antibody, human IgG1, kappa, name in Kabat numbering, V domains shown) VH: QVQLVESGGGLVQPGGSLRLSCAASGFTFDKYYLSWVRQAPGKGLEWVGLIRNKDNYHTPEYSASVKGRFTISRDDSKNSLYLTMSDLKTEDTAVYYCARENHRYDVELAYWGQGTLVTVSS VL: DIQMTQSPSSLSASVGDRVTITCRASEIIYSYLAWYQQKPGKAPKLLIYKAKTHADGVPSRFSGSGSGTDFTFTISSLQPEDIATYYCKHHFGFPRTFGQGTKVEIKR
5. H1031/L0395 (antibody, human IgG1, kappa, name in Kabat numbering, V domains shown) VH: QVQLVESGGGLVQPGGSLRLSCAASGFTFDKYYLSWVRQAPGKGLEWVGLIRNKDNHHHPEYSASVKGRFTISRDDSKNSLYLTMSDLKTEDTAVYYCARENHRYDVELAYWGQGTLVTVSS VL: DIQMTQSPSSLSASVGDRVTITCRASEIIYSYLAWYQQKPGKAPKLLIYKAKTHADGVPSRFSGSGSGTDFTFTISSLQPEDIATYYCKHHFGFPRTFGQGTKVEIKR

[out]
[7.15, 7.05, 7.05, 7.42, 7.00]
